Data provenance is ChEMBL document CHEMBL5136985.

- System: Sclerotinia sclerotiorum
- TEST_PROTOCOL: Antifungal activity against Sclerotinia sclerotiorum
- Assay type: functional, organism-based
MEASURED_ATTRIBUTE: pEC50
Remember, pEC50 is on a log scale: it is -log10 of the molar concentration.

Some solved cases for reference:
- O=C(Nc1ccccc1-c1ccc(Cl)cc1)c1cccnc1Cl: 6.05
- CC(C)(C)[C@@H]1COC(c2nccc3c2[nH]c2ccccc23)=N1: 4.89
- CC(C)[C@@H]1COC(c2nccc3c2[nH]c2ccccc23)=N1: 4.81
- c1ccc(C[C@@H]2COC(c3nccc4c3[nH]c3ccccc34)=N2)cc1: 4.92

Lookup result for O=C(O)c1cc2c([nH]c3ccccc32)c(-c2ccc(Br)cc2)n1 ; measured pEC50: 5.27

Lookup result for O=C(O)c1cc2c([nH]c3ccccc32)c(-c2ccsc2)n1 ; measured pEC50: 4.92

Lookup result for c1ccc([C@@H]2COC(c3nccc4c3[nH]c3ccccc34)=N2)cc1 ; measured pEC50: 4.76

Lookup result for CC[C@@H]1COC(c2nccc3c2[nH]c2ccccc23)=N1 ; measured pEC50: 4.65

Lookup result for CC[C@@H](C)[C@@H]1COC(c2nccc3c2[nH]c2ccccc23)=N1 ; measured pEC50: 4.75
